# subject.of.test: Glutamate NMDA receptor
# experimental.details: Compound was tested for inhibition of N-methyl-D-aspartate glutamate receptor by using [3H]CPP as a radioligand from the rat cortical membranes
# Format: cell membranes, Membrane
Consider the following compounds and their measured IC50 readings.
reported.metric: IC50

O=C(O)C1CN(CCCP(=O)(O)O)CCN1CCC(c1ccccc1)c1ccccc1 (stereo not drawn) : > 100 µM
O=C(O)C1CN(c2ccccc2P(=O)(O)O)CCN1 (stereo not drawn) : > 100 µM
O=C(O)C1CN(CP(=O)(O)O)CCN1 (stereo not drawn) : 0.32 µM

###

# subject.of.test: Glutamate NMDA receptor
# experimental.details: Binding affinity was determined by the ability to displace [3H]-CPP from N-methyl-D-aspartate glutamate receptor of rat brain
pIC50: −log10 of the molar value.
reported.metric: pIC50

NC(CCCP(=O)(O)O)C(=O)O (stereo unspecified) : 6.54

###

# subject.of.test: Glutamate NMDA receptor
# experimental.details: Inhibition of N-methyl-D-aspartate glutamate receptor by using [3H]CPP as a radioligand from the rat cortical membranes.
# Format: cell membranes, Membrane
Measured IC50 accompanies every entry in the list below.
reported.metric: IC50 (µM)

NC(CCCCCP(=O)(O)O)C(=O)O (stereo unspecified) : 0.76
O=C(O)CCCN1CCNC(C(=O)O)C1 (stereo unspecified) : 0.85
O=C(O)[C@@H]1C[C@H](CP(=O)(O)O)CCN1 : 0.065
O=C(O)C1CN(CCCP(=O)(O)O)CCN1 (stereo unspecified) : 0.079
O=C(O)C1CN(C(c2ccccc2)P(=O)(O)O)CCN1 (stereo unspecified) : 5.8
O=C(O)C1CN(CCP(=O)(O)O)CCN1 (stereo unspecified) : 9.8
O=C(O)C1CN(CCCCP(=O)(O)O)CCN1 (stereo unspecified) : 48
CP(=O)(O)CCCN1CCNC(C(=O)O)C1 (stereo unspecified) : 0.78
O=C(O)C1CN(c2cccc(P(=O)(O)O)c2)CCN1 (stereo unspecified) : 83
O=C(O)CN1CCNC(C(=O)O)C1 (stereo unspecified) : 16
CN1CCN(CCCP(=O)(O)O)CC1C(=O)O (stereo unspecified) : 47.7

###

Recorded IC50 for the following compounds
# subject.of.test: Glutamate NMDA receptor
# experimental.details: Compound was tested for inhibition of [3H]CPP binding from N-methyl-D-aspartate glutamate receptor in the rat cortical membranes.
# Format: cell membranes, Membrane
reported.metric: IC50

CN[C@H](CC(=O)O)C(=O)O : 4.55 µM
O=C(O)C1CN(C(c2ccccc2)P(=O)(O)O)CCN1 (configuration not stated) : 13.3 µM
